test system: ACHN renal; assay: NCI tumour cell line growth inhibition, 48 h
Attribute: TGI
experimental-endpoint: TGI (µM)

1. COc1ccc(-c2cc(-c3ccccc3)nc(SCCCC(=O)NO)n2)cc1; 1.46
2. N#CC(C#N)=Cc1ccc2c(c1)OC(Cl)O2 (stereo not given); 36
3. CCCCCCCCCCCCCCCCCC(=O)OCC(COC1OC(COP(=O)(O)O)C(O)C(O)C1O)OC(=O)CCCCCCCCCCCCCCCCC (stereo not given); 12.7

* * *

tested on: RXF 393 renal; assay: NCI tumour cell line growth inhibition, 48 h
Documented TGI across a set of molecules
experimental-endpoint: TGI (µM)

1) C=CC(=O)Nc1cccc(C)c1Nc1cc(-c2cccnc2Cc2c(C)c(OC)cc(OC)c2C)ncn1; 7.89
2) Cc1c(/C=N/NC(=S)Nc2ccccc2Cl)c(=O)n(-c2ccccc2)n1C; 47.9
3) C=CC(=O)N(C)[C@H]1C[C@H]2OC(C)(C1OC)n1c3ccccc3c3c4c(c5c6ccccc6n2c5c31)C(=O)NC4 (some centres not stated); 0.157
4) O=c1cc(-c2ccccc2)[nH]c2cc(O)ccc12; 37.5
5) Cc1ccc(N2C(=O)C3c4[nH]c5ccccc5c4C4CCC(C(C)(C)C)CC4C3C2=O)cc1 (configuration not stated); 22.1
6) O=C(c1ccccc1)c1ccc(COc2ccc(C(c3c(O)c4ccccc4oc3=O)c3c(O)c4ccccc4oc3=O)cc2)cc1; 44.5
7) O=[N+]([O-])c1cccc(-c2nc3sccn3c2-c2ccnc(NCCCNS(=O)(=O)c3cccc(F)c3)n2)c1; 41.6
8) C/C=C/[P+](c1ccccc1)(c1ccccc1)c1ccccc1; 41.6
9) Cc1cc2c3ccc(C)[n+](C)c3ccc2n1C; 44.2
10) CCN(C(=O)N1CCN(c2cc3c(cc2F)c(=O)c(C(=O)O)cn3C2CC2)CC1)c1nc(-c2ccc(C)cc2)cs1; 4.2
11) CN(C)c1ccc(N=Nc2ccc3nc[nH]c3c2)cc1; 88.7
12) CCN1CCC(CCOC)(CN2c3ccccc3Sc3ccc(Cl)cc32)C1 (configuration not stated); 4.03
13) COC(=O)c1ccc2c(O)c(O)ccc2c1; 31.4
14) N#Cc1c(N/N=C/c2c(Cl)cccc2Cl)nc(N)nc1N1CCOCC1; 94.2
15) c1ccc2c(c1)c(NCCCCN1CCCCC1)cc1c3ccccc3c(NCCCCN3CCCCC3)cc21; 38.2
16) Cc1ccc(Oc2ccc(C)cc2[N+](=O)[O-])cc1; 92.7
17) COc1ccc(N=c2ssc3c(=S)ssc23)cc1; 38.7
18) CC1=C2C(=O)c3ccccc3C(=O)[C@H]2[C@H]2CCO[C@H]2O1; 31.3
19) O=C(/C(=C/c1ccc([N+](=O)[O-])cc1)c1ccccc1)c1ccccc1; 6.78

* * *

test system: LOX IMVI melanoma; test: NCI tumour cell line growth inhibition, 48 h
experimental-endpoint: TGI

1. CC12NN=NC1C(=O)NC2=O (stereo not drawn); > 100 µM
2. Nc1ncnc2[nH]ncc12; > 41 µM
3. C=C1COC(/C=C(\C)CC/C=C(\C)CCl)C1 (stereo not drawn); > 100 µM

* * *

system: HOP-62 NSCLC; assay: NCI tumour cell line growth inhibition, 48 h
experimental-endpoint: GI50

1. O=C(c1ccccc1)C(CN1CCOCC1)c1ccccc1 (stereo not drawn); 6.5 µM
2. COc1cc2c(cc1OCCCCOc1cc3c(cc1OC)C(=O)N1CCC[C@H]1CN3)N=C[C@@H]1CCCN1C2=O; 3.36 µM
3. COc1ccc(-c2n[nH]nc2-c2cc(OC)c3c(c2OC)OCO3)cc1; 1.45 µM

* * *

test system: MOLT-4 leukemia; assay: NCI tumour cell line growth inhibition, 48 h; in the data active = GI50 below about 0.43 µM; inactive = the rest
Labels: t for active, f for inactive

1) N#C/C(=C\c1c(-c2ccccc2)[nH]c2ccccc12)S(=O)(=O)c1ccccc1; f
2) O=C(C1CCCCC1)[C@@H]1[C@]2(C(=O)NC3CCCCC32)[C@@H]2CCCN2[C@@]12C(=O)NC1CCC(Cl)CC12 (some centres undefined); f
3) CN(C)CCCN1c2ccccc2CCc2ccc(Cl)cc21; f
4) CCN(C(=O)N1CCN(c2cc3c(cc2F)c(=O)c(C(=O)O)cn3C2CC2)CC1)c1nc(-c2ccc(C)cc2)cs1; f
5) O=C1c2c(c3c4ccccc4[nH]c3c3ccc4ccccc4c23)C(=O)N1CCN1CCCCC1; t
6) COC1CC(OS(=O)(=O)c2ccc(C)cc2)C(OC(=O)c2ccccc2)C(C)O1 (centres undefined); f
7) COc1cc2c(cc1OCCCCOc1cc3c(cc1OC)C(=O)N1CCC[C@H]1CN3)N=C[C@@H]1CCCN1C2=O; t
8) Cc1cc(N/N=C/c2nc(-c3ccc(Br)cc3)oc2C)c2cc(Cl)ccc2n1; f
9) CC(C)(C)c1ccc(OCCCCCCN2CCNCC2)cc1; f

* * *

test system: M14 melanoma; assay: NCI tumour cell line growth inhibition, 48 h; in the data active = GI50 below about 0.43 µM; inactive = the rest
Possible outcomes: yes = active, no = inactive

1. O=C(NN1C(=O)CSC12CCCCC2)c1[nH]c2ccc(F)cc2c1-c1ccccc1; no
2. COC(=O)Cn1c2c(c3c(O)cccc31)C(=O)c1ccccc1-2; no
3. C[C@@H]1CC[C@H]2C(COCCOCC3=C(C(F)(F)F)O[C@@H]4O[C@@]5(C)CC[C@H]6[C@H](C)CC[C@@H]3[C@@]46OO5)=C(C(F)(F)F)O[C@@H]3O[C@@]4(C)CC[C@@H]1[C@]32OO4; no
4. CN(C)CCCN1c2ccccc2CCc2ccc(Cl)cc21; no
5. N#Cc1c(N/N=C/c2c(Cl)cccc2Cl)nc(N)nc1N1CCOCC1; no
6. Cc1cc2c3ccc(C)[n+](C)c3ccc2n1C; no
7. COc1ccc2cc(-c3ccoc(=O)c3-c3cc(OC)c(OC)c(OC)c3)ccc2c1; yes
8. CC(C)CC(CC1=CCC2CC1C2(C)C)C1=C(O)C(C)(C)C(=O)C(C)(C)C1=O (centres undefined); yes
9. C=CC(=O)Nc1cccc(C)c1Nc1cc(-c2cccnc2Cc2c(C)c(OC)cc(OC)c2C)ncn1; no

* * *

system: MDA-MB-435
experimental-endpoint: GI50

1) N=C(N)c1ccc(N2CCCN(c3ccc(C(=N)N)cc3)CC2)cc1; > 100 µM
2) CCCn1c(C)nc2c1C(=O)c1ccccc1C2=O; 17.2 µM
3) C[C@]12CC[C@H]3[C@@H](CCC4=CC(=O)CC[C@@H]43)[C@@H]1CC[C@@H]2OC(=O)CCc1ccccc1; 24.5 µM
4) Clc1cc(Cl)c(OCC#CI)cc1Cl; 2.02 µM
5) CC(CN1CCN(CCOCCO)CC1)CN1c2ccccc2Sc2ccc(Cl)cc21 (centres undefined); 2.06 µM
6) CC(=O)C(O)N1C(=O)C=CC1=O (centres undefined); 10700 µM
7) CC(=O)OC1C=CC(OC(C)=O)C2C1[C@H]1C3C=CC=CC3[C@@H]2S1=O (some centres undefined); 40.2 µg/mL
8) N#Cc1c(N/N=C/c2c(Cl)cccc2Cl)nc(N)nc1N1CCOCC1; 3.26 µM
9) COc1cc2c(cc1OCCCCOc1cc3c(cc1OC)C(=O)N1CCC[C@H]1CN3)N=C[C@@H]1CCCN1C2=O; 0.464 µM

* * *

# TGI listing for each entry below
tested on: BT-549 breast; assay: NCI tumour cell line growth inhibition, 48 h
experimental-endpoint: TGI (µM)

1. CN(C)CCCN1c2ccccc2CCc2ccc(Cl)cc21; 22.2
2. Cc1cc(C)c(C2=NOC(c3ccccc3)(c3cc(=O)n(-c4ccccc4)s3)O2)c(C)c1 (centres undefined); 52.4
3. Cc1cc(=O)[nH]c(NN2C(Cl)C(=O)C2c2ccc(Cl)cc2)n1 (centres undefined); 86.9
4. COc1cc2c(cc1OCCCCOc1cc3c(cc1OC)C(=O)N1CCC[C@H]1CN3)N=C[C@@H]1CCCN1C2=O; 5.75
5. [N-]=[N+]=Nc1c(-c2ccccc2)c(Cl)nc2ccccc12; 77.1

* * *

test system: NCI-H226 lung; experiment: NCI tumour cell line growth inhibition, 48 h
# TGI values compiled below
experimental-endpoint: TGI

1. O=[N+]([O-])/C=C1\COCc2cc3c(cc21)OCO3; 57.6 µM
2. COc1ccc(N=c2ssc3c(=S)ssc23)cc1; > 100 µM
3. O=S(=O)(Sc1ccc(Cl)cc1)c1ccc(Cl)cc1; 30.9 µM
4. C=CCOC(=O)/C(=C\c1ccc(OC)c(OC)c1)c1ccc(OC)c(OC)c1; > 100 µM
5. O=S(=O)(c1ccccc1)C(CN1CCCCC1)S(=O)(=O)c1ccccc1; > 100 µM
6. Cc1c(/C=N/NC(=S)Nc2ccccc2Cl)c(=O)n(-c2ccccc2)n1C; > 100 µM
7. C[C@@H]1CC[C@H]2C(COCCOCC3=C(C(F)(F)F)O[C@@H]4O[C@@]5(C)CC[C@H]6[C@H](C)CC[C@@H]3[C@@]46OO5)=C(C(F)(F)F)O[C@@H]3O[C@@]4(C)CC[C@@H]1[C@]32OO4; > 100 µM
8. CCCn1c(C)nc2c1C(=O)c1ccccc1C2=O; > 100 µM
9. CN(C)c1ccc(/C=N\NC(=O)CSCC(=O)N/N=C/c2ccc(N(C)C)cc2)cc1; > 100 µM
10. CC1CCCc2c(C#N)c(N)nc(-c3ccc(Cl)cc3)c21 (stereo not given); 43.3 µM
11. CCOC1(COP(=O)(OCc2ccccc2)OCc2ccccc2)COC(COP(=O)(OCc2ccccc2)OCc2ccccc2)(OCC)CO1 (stereo not given); > 100 µM
12. COC(=O)C1C(OC(=O)c2ccccc2)CC2CCC1N2C(N)=O (stereo not given); > 100 µM
13. Fc1ccc2nc3n(c2c1)C(c1c(F)cccc1F)SC3 (stereo not given); > 100 µM
14. CCOC(=O)c1oc2ccc(OC)c3c2c1CCC3; > 100 µM
15. CCCCNCC(=O)O[C@]1(CC)C(=O)OCc2c1cc1n(c2=O)Cc2cc3ccccc3nc2-1; 2.06 µM
16. C=CCc1cc(OC)c2c(c1)C(O)CC(c1ccccc1)O2 (stereo not given); > 100 µM
17. CN(C)CCCNC(=O)N/N=C/c1cccc([N+](=O)[O-])c1; > 100 µM
18. O=C(N/N=C/c1ccc2c(c1)CCC2)c1ccccc1O; 77.7 µM
19. CN(C)c1ccc(C=C2C(=O)OC(C)(C)OC2=O)cc1Br; > 100 µM
20. CCOC(=O)C(=O)Nc1c(CC)cccc1C(C)C; > 100 µM
21. O=C1C=C(Br)c2c(-c3ccccc3)oc3cccc1c23; > 100 µM
22. COC(=O)c1c2n(c3ccccc13)C[C@H]1OC(C)(C)O[C@@H]21; > 100 µM
23. O=C1OC(CCCl)(c2ccccc2)CC1CN1CCOCC1 (stereo not given); 28 µM
24. NC(=O)CCCC(NCc1c2ccccc2nc2ccccc12)C(=O)O (stereo not given); > 100 µM
25. O=C(c1ccccc1)C(CN1CCOCC1)c1ccccc1 (stereo not given); 9.33 µM
26. CSc1nc(N)c(NC2OC(CO)C(O)C2O)c(=O)[nH]1 (stereo not given); > 100 µM
27. C=C1COC(/C=C(\C)CC/C=C(\C)CCl)C1 (stereo not given); > 100 µM
28. Cc1ccc(S(=O)(=O)NCCSCCNS(=O)(=O)c2ccc(C)cc2)cc1; > 100 µM
29. COc1cc2c(cc1OCCCCOc1cc3c(cc1OC)C(=O)N1CCC[C@H]1CN3)N=C[C@@H]1CCCN1C2=O; 4.49 µM
30. COc1ccc(NC(=O)/C(=N\NC(=O)C[n+]2ccccc2)c2c(O)c3ccc(O)cc3oc2=O)c([N+](=O)[O-])c1; > 100 µM
31. CCC1CN2CCc3cc(OC)c(OC)cc3C2CC1CC1c2cc(OC)c(OC)cc2CCN1C(=O)C1CCCN1C(=O)OCc1ccccc1 (stereo not given); 30.9 µM
32. COc1ccc(N2C(=O)C3c4[nH]c5ccc(C)cc5c4C4CCC(C)CC4C3C2=O)cc1 (stereo not given); > 100 µM
33. CCCCCCCCCCCCCCCCCC(=O)OCC(COC1OC(COP(=O)(O)O)C(O)C(O)C1O)OC(=O)CCCCCCCCCCCCCCCCC (stereo not given); 13.3 µM
34. CN(C)CCNc1nc(-c2ccc3ccccc3c2)nc2nc[nH]c12; 16.6 µM
35. C[C@]12CC[C@H]3[C@@H](CCC4=CC(=O)CC[C@@H]43)[C@@H]1CC[C@@H]2OC(=O)CCc1ccccc1; 34 µM
36. COC(=O)C1CC2(CCC1=O)Cc1ccccc1C2=O (stereo not given); > 100 µM
37. O=C1C(=O)N(c2ccc(Cl)c(Cl)c2)C(=O)C(=O)C1c1nc2ccccc2s1; > 100 µM
38. COc1nc2c(c(=O)n1C)N(C(C)=O)C1C(N2)OCC(OC(C)=O)C1OC(C)=O (stereo not given); > 10 µM
39. Cc1cc(=O)[nH]c(NN2C(Cl)C(=O)C2c2ccc(Cl)cc2)n1 (stereo not given); 42 µM
40. COc1cc2c(c(OC)c1OC)C(=O)[C@H](O)[C@H]2NC(N)=O; > 100 µM
